TARGET_ENTITY: mMC4R (Mus musculus, UniProt P56450)
Sequence (P56450 whole entry): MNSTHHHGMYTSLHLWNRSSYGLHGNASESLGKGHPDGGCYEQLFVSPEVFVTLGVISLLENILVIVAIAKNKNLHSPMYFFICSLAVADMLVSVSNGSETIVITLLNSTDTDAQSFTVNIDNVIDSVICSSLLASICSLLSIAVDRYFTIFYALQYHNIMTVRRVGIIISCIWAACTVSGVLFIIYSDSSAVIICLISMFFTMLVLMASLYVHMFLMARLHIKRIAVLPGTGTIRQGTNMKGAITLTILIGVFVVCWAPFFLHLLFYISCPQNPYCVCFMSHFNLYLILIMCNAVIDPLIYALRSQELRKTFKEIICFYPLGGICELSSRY
TEST_DESCRIPTION: cAMP based functional bioassay (CRE/β-galactosidase reporter), agonist activity at mMC4R
CONDITION_NOTES: reported where receptor not activated to full activity
Entries whose mMC4R Activity @ 10 μM (relative activity, percent) is below 50% take yes; entries at or above 50% take no.

COMPOUND	CATEGORY
CC(C)C[C@@H]1CNC(=N)N1C[C@@H]1CCCN1C[C@@H](CC1CCCCC1)N1C[C@@H]([C@@H](C)O)N(CC23CC4CC(CC(C4)C2)C3)C1=N	no
CCC[C@@H]1CN([C@H](CC2CCCCC2)CN2CCC[C@H]2CN2C(=N)NC[C@H]2C(C)C)C(=N)N1CC12CC3CC(CC(C3)C1)C2	yes
CC(C)C[C@@H]1CNC(=N)N1C[C@@H]1CCCN1C[C@@H](Cc1ccccc1)N1C[C@@H]([C@@H](C)O)N(CC23CC4CC(CC(C4)C2)C3)C1=N	no
CCC[C@@H]1CN([C@H](Cc2ccccc2)CN2CCC[C@H]2CN2C(=N)NC[C@H]2C(C)C)C(=N)N1CC1CCC(C(C)(C)C)CC1 (some centres unmarked)	yes

---

TARGET_ENTITY: mMC5R (Mus musculus, UniProt P41149)
Sequence (P41149 whole entry): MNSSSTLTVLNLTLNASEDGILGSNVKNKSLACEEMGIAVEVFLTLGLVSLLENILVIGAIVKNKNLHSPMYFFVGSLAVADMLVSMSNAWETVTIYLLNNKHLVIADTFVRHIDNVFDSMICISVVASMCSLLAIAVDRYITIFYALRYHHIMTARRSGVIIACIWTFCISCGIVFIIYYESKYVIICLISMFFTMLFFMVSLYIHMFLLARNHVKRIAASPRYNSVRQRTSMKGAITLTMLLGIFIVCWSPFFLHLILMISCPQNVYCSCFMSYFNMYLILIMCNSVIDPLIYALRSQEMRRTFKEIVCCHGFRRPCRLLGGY
TEST_DESCRIPTION: cAMP based functional bioassay (CRE/β-galactosidase reporter), agonist activity at mMC5R

MOLECULE	EC50 (nM)
CC(C)[C@@H]1CNC(=N)N1C[C@@H]1CCCN1C[C@@H](Cc1ccccc1)N1C[C@@H]([C@@H](C)O)N(CC23CC4CC(CC(C4)C2)C3)C1=N	180
CCC[C@@H]1CN([C@H](Cc2ccccc2)CN2CCC[C@H]2CN2C(=N)NC[C@H]2C(C)C)C(=N)N1CCCC(C)C	2030
CC(C)C[C@@H]1CNC(=N)N1C[C@@H]1CCCN1C[C@@H](Cc1ccccc1)N1C[C@@H](C(C)C)N(CC2CCC(C(C)(C)C)CC2)C1=N (stereo partly drawn)	560
CC(C)[C@@H]1CNC(=N)N1C[C@@H]1CCCN1C[C@@H](Cc1ccccc1)N1C[C@@H]([C@@H](C)O)N(CC2CCC(C(C)(C)C)CC2)C1=N (stereo partly drawn)	490
CC(C)C[C@@H]1CNC(=N)N1C[C@@H]1CCCN1C[C@@H](CC1CCCCC1)N1C[C@@H]([C@@H](C)O)N(CC23CC4CC(CC(C4)C2)C3)C1=N	340
CC(C)CCCN1C(=N)N([C@H](CC2CCCCC2)CN2CCC[C@H]2CN2C(=N)NC[C@H]2CC(C)C)C[C@H]1[C@H](C)O	630

---

TARGET_ENTITY: mMC4R (Mus musculus, UniProt P56450)
TEST_DESCRIPTION: cAMP based functional bioassay (CRE/β-galactosidase reporter), agonist activity at mMC4R
CONDITION_NOTES: reported where receptor not activated to full activity
MEASURED_ENDPOINT: mMC4R Activity @ 10 μM (relative activity, percent) (%)

COMPOUND	UNIT_OF_MEASUREMENT	READING
CC(C)[C@@H]1CNC(=N)N1C[C@@H]1CCCN1C[C@@H](CC1CCCCC1)N1C[C@@H](C(C)C)N(CC2CCC(C(C)(C)C)CC2)C1=N (stereo partly drawn)	%	28
CC(C)[C@@H]1CNC(=N)N1C[C@@H]1CCCN1C[C@@H](Cc1ccccc1)N1C[C@@H](C(C)C)N(CC23CC4CC(CC(C4)C2)C3)C1=N	%	54
CCC[C@@H]1CN([C@H](CC2CCCCC2)CN2CCC[C@H]2CN2C(=N)NC[C@H]2C(C)C)C(=N)N1CCCC(C)C	%	40
CCC[C@@H]1CN([C@H](Cc2ccccc2)CN2CCC[C@H]2CN2C(=N)NC[C@H]2CC(C)C)C(=N)N1CC1CCC(C(C)(C)C)CC1 (stereo partly drawn)	%	28
CC(C)[C@@H]1CNC(=N)N1C[C@@H]1CCCN1C[C@@H](CC1CCCCC1)N1C[C@@H](C(C)C)N(CC23CC4CC(CC(C4)C2)C3)C1=N	%	40
CCC[C@@H]1CN([C@H](CC2CCCCC2)CN2CCC[C@H]2CN2C(=N)NC[C@H]2CC(C)C)C(=N)N1CC1CCC(C(C)(C)C)CC1 (stereo partly drawn)	%	65
CC[C@H](C)[C@@H]1CNC(=N)N1C[C@@H]1CCCN1C[C@@H](Cc1ccccc1)N1CC(Cc2ccc(O)cc2)N(CC2CCC(C(C)(C)C)CC2)C1=N (stereo partly drawn)	%	23
CCC[C@@H]1CN([C@H](Cc2ccccc2)CN2CCC[C@H]2CN2C(=N)NC[C@H]2C(C)C)C(=N)N1CCCC(C)C	%	41
CC(C)C[C@@H]1CNC(=N)N1C[C@@H]1CCCN1C[C@@H](CC1CCCCC1)N1C[C@@H](C(C)C)N(CC23CC4CC(CC(C4)C2)C3)C1=N	%	50
CC(C)[C@@H]1CNC(=N)N1C[C@@H]1CCCN1C[C@@H](CC1CCCCC1)N1C[C@@H]([C@@H](C)O)N(CC2CCC(C(C)(C)C)CC2)C1=N (stereo partly drawn)	%	41
CC(C)C[C@@H]1CNC(=N)N1C[C@@H]1CCCN1C[C@@H](CC1CCCCC1)N1C[C@@H]([C@@H](C)O)N(CC2CCC(C(C)(C)C)CC2)C1=N (stereo partly drawn)	%	45
CC(C)CCCN1C(=N)N([C@H](Cc2ccccc2)CN2CCC[C@H]2CN2C(=N)NC[C@H]2C(C)C)C[C@H]1C(C)C	%	21
